# protocolNotes: Kinetic solubility in aqueous buffer
# Type: physicochemical
# conditionSet: 2 hrs at 25 °C
# Description: Experimental Methods: 30 µL of the 10 mM DMSO stock solution of the compound to be test was placed in a solubility sample plate (duplicate), 970 µL of aqueous buffer solution was added to the plate, and the plate was sealed with a sealing membrane and shaken at 1100 rpm for 2 hrs at 25 °C. The sample in the solubility plate was transferred to a filter plate, and filtered to obtain a filtrate. […]
valueKind: solubility kinetic at 2 h (µM)

O=c1oc2cc(O)ccc2c2ccc(O)cc12 [Urolithin A, reference compound]	98.8
